test system: Streptococcus pneumoniae; test: Antibacterial activity against Streptococcus pneumoniae 7 expressing constitutive ermB methylase after 20 hrs by agar dilution method; type: functional; conditions: Streptococcus pneumoniae, 7, 20 h
measurementName: MIC (µg/mL)
Give just the numeric value; µg/mL need not be written.

Exam item: Write down measured MIC (Streptococcus pneumoniae) for this compound. CCNC(=O)O[C@H]1[C@H](C)O[C@@H](O[C@H]2[C@H](N(C)C)[C@@H](O)[C@H](O[C@H]3[C@@H](CC=O)C[C@@H](C)[C@@H](O)CN(C)CCC[C@H](C/C=C/c4ccnc5ccccc45)OC(=O)C[C@@H](OC(=O)CC)[C@@H]3OC)O[C@@H]2C)C[C@@]1(C)OC(=O)CC
Marked response: 64
